IC50 tested on Motilin receptor (Oryctolagus cuniculus, UniProt A5A4K8): recorded values
Sequence (A5A4K8 whole entry): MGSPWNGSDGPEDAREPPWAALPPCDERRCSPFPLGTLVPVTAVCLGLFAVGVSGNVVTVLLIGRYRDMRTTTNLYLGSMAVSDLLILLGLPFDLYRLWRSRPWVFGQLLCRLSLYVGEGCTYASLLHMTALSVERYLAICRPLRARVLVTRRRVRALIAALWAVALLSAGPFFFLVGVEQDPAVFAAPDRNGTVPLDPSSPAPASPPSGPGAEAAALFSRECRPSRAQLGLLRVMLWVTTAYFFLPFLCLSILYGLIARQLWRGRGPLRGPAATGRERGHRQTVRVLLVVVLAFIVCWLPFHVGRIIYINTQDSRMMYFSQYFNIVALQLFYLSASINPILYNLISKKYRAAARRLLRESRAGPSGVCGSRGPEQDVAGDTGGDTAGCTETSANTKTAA
Bridge positions count the residues as written; N and C are the ends. Square brackets hold non-standard residues; d marks the D form. Peptide text beside a SMILES is read from it. * marks the point of attachment. βAla = NCCC(=O)O; tBu = CC(C)(C)*
Give your result as the value with the unit written after it.

compound: CC(C)(C)Oc1ccc(C[C@@H]2NC(=O)[C@@H](NC(=O)[C@@H](N)Cc3ccccc3)CCCCNC(=O)CCNC2=O)cc1 (H-FKY(tBu)[βAla]; lactam 2-C)
IC50: 7.5 µM

// next entry
# input Which IC50 is reported for this compound? CC(C)(C)c1cc(C[C@@H]2NC(=O)[C@@H](NC(=O)[C@@H](N)Cc3ccccc3)CCCCNC(=O)CCNC2=O)cc(C(C)(C)C)c1O
# output 0.46 µM
